Target: VIP receptor on human cells (human)
Assay: competition with 125I-VIP on PANC1 cells
pIC50: −log10 of the molar value. No end group written: not given here.
quantity_kind: pIC50

HSDAVFTDNYTRLRKQMAVKKYLNSILNC (C-terminal C(BAT): S-(N6,N9-bis(2-mercapto-2-methylpropyl)-6,9-diazanonan-1-yl)cysteine; C-terminal amide; non-radioactive ReO complexed to the chelating moiety) [ReO-complexed P917] ... 8.43
AGCHSDAVFTDNYTRLRKQMAVKKYLNSILN-NH2 (also: non-radioactive ReO complexed to the chelating moiety) [ReO-complexed P915] ... 7.85

P: HSDAVFTDNYTRLRKQMAVKKYLNSILNGGC-NH2 (also: non-radioactive ReO complexed to the chelating moiety) [ReO-complexed P916]
Q: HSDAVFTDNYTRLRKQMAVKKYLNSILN-NH2 [Vasoactive intestinal peptide (VIP)]
Inquiry: Returns: the label, P or Q , whose recorded pIC50 is the lower number. Please respond with the label that marks your chosen entry.
Reply text: P

Hello, the source for this data is patent US5849261, in case you need it.
